Assay: Pharmacokinetic study after IP administration
Format: in vivo, male C57BL/6 mice
Conditions: male, C57BL/6, mouse, in vivo, 3 mg/kg, 3 mg/kg ip, 2 h; read-out: Mean concentration in mouse plasma
Procedure: During the experimental procedure, animals were identified with a permanent marker (tail code numbers). […] They underwent a period of at least 5 days of observation and acclimatization between the date of arrival and the start of the procedure. […] Diet was analyzed by the manufacturer to detect possible contaminants. […] Pharmacokinetics parameters were calculated with Phoenix 64 (WinNonlin).
propertyMeasured: concentration at 2 h (ng/mL)
Numbers only, in ng/mL.

Sure, the documented concentration at 2 h for O=C(NC12CC3CC(Cl)(CC(C1)c1ccccc13)C2)N[C@H]1CC[C@H](Oc2ccc(C(=O)O)cc2)CC1 is 3580
